# experiment_notes: Inhibition of Tel-fused LCK expressed in mouse BAF3 cells
Could you please mark rule met for values of IC50 below 80 nM and rule not met for values at or above it?

- Cc1ccc(C(=O)Nc2cccc(C(F)(F)F)c2)cc1Nc1nc2ccccc2n1-c1ncnc(NCCCN2CCN(C)CC2)n1: rule met

**Q:** Consider Cc1ccc(C(=O)Nc2cccc(Cl)c2)cc1Nc1nc2ccccc2n1-c1cc(N)ncn1 . Does its IC50 lie strictly below 80 nM?
**A:** rule met

**Q:** Given Cc1ccc(NC(=O)c2cc(Cl)cc(Cl)c2)cc1Nc1nc2ccccc2n1-c1cc(N)ncn1 , is recorded IC50 strictly lower than 80 nM?
**A:** rule not met

**Q:** Say whether its IC50 is strictly beneath 80 nM. Entry: Cc1ccc(NC(=O)c2cccc(C(F)(F)F)c2)cc1Nc1nc2ccccc2n1-c1cc(NCCCC2COCCN2)ncn1 (stereo unspecified)
**A:** rule met

**Q:** Given the entry Cc1ccc(NC(=O)c2cc(C3CC3)n[nH]2)cc1Nc1nc2ccccc2n1-c1cc(N)ncn1 , would its reported IC50 be below 80 nM?
**A:** rule met

**Q:** Strictly below 80 nM: is that where IC50 of Cc1ccc(C(=O)Nc2cccc3cnccc23)cc1Nc1nc2ccccc2n1-c1cc(N)ncn1 sits?
**A:** rule not met

----------
# experiment_notes: Inhibition of Tel-fused KDR expressed in mouse BAF3 cells
pIC50: −log10 of the molar value.
Classification field: Criterion met = pIC50 at or over 6; Criterion not met = pIC50 under 6.

# count of solved cases: 5
* Cc1ccc(NC(=O)c2cc(CN3CCN(C)CC3)n(C(C)(C)C)n2)cc1Nc1nc2ccccc2n1-c1cc(N)ncn1 | Criterion met
* CCN(CC)CCCCNc1cc(-n2c(Nc3cc(C(=O)Nc4cccc(C(F)(F)F)c4)ccc3C)nc3ccccc32)ncn1 | Criterion met
* Cc1ccc(NC(=O)c2cccc(C(F)(F)F)c2)cc1Nc1nc2ccccc2n1-c1cc(N)ncn1 | Criterion met
* Cc1ccc(C(=O)Nc2cccc(C(C)C)c2)cc1Nc1nc2ccccc2n1-c1cc(N)ncn1 | Criterion met
* CCN1CCN(c2cc(C(=O)Nc3ccc(C)c(Nc4nc5ccccc5n4-c4cc(N)ncn4)c3)cc(C(F)(F)F)c2)CC1 | Criterion met

**Q:** API: above_or_equal(metric=pIC50, cutoff=6) for item Cc1ccc(NC(=O)c2cc(N3CCN(C)CC3)cc(C(F)(F)F)c2)cc1Nc1nc2ccccc2n1-c1cc(N)ncn1
**A:** Criterion met

**Q:** Threshold query (pIC50 >= 6) on Cc1ccc(C(=O)Nc2cccc(C(N)=O)c2)cc1Nc1nc2ccccc2n1-c1cc(N)ncn1
**A:** Criterion not met

----------
# experiment_notes: Inhibition of Tel-fused SRC expressed in mouse BAF3 cells
measured_property: pIC50
Note: pIC50 values are expressed as the negative base-10 logarithm of concentration in M.

See these solved cases before continuing.
- Cc1ccc(NC(=O)c2cccc(C(F)(F)F)c2)cc1Nc1nc2ccccc2n1-c1cc(NCCN)ncn1: 5.89
- Cc1ccc(NC(=O)c2cccc(C(F)(F)F)c2)cc1Nc1nc2ccccc2n1-c1cc(N[C@H]2CC[C@H](N)CC2)ncn1: 6.13

Attention now turns to another entry.
**Q:** // returns reported pIC50 for input Cc1ccc(C(=O)Nc2cccc(C(F)(F)F)c2)cc1Nc1nc2ccccc2n1-c1cc(NCCC#N)ncn1
**A:** 5.91
